experiment: Human HepG2 cell viability assay in 384 well format; assay type: toxicity, cell-based; parameters: dose 125 nL, time 70.5 hour; concentration not given beside the values; details: HepG2 cells, read-out: Inhibition
endpoint: cytotoxicity at 70.5 h

[[record]]
compound = "COc1ccc(N2CCC(N3CCOC(C(F)(F)F)C3)CC2)cc1 (stereo not given)"
value_measured = "-7.02%"

[[record]]
compound = "CNC(=O)C1CCN(C(=O)c2cccn2Cc2cccs2)CC1"
value_measured = "-8.46%"

[[record]]
compound = "COc1ccc(S(=O)(=O)NCC(O)c2sccc2C)cc1Cl (stereo not given)"
value_measured = "0.182%"

[[record]]
compound = "O=C(NCc1ccco1)[C@H]1C[C@H]2OCC[C@H]2N(C(=O)c2ccncc2)C1"
value_measured = "-12.4%"

[[record]]
compound = "O=C(NCC1CC[C@@H]2[C@@H]1OCCN2Cc1cccs1)c1ccco1 (stereo not given in full)"
value_measured = "-0.679%"


Source listed as ChEMBL document CHEMBL3507680.
